# Test system: HBeAg
# assay_overview: microbe, parasite or virus in culture
# Type: cell-based, HBV
# reported_conditions: Hepatitis B virus, read-out: HBeAg IC50
Recorded IC50 for the following molecules

molecule: CS(=O)(=O)C1(c2ccc(C(=O)NC34CC(c5nc(-c6ccc(Cl)cn6)cs5)(C3)C4)o2)CC1 [Example 10]
IC50 (nM): 200
--
molecule: CS(=O)(=O)C1(c2ccc(C(=O)NC34CC(c5nc(-c6ccccc6)cs5)(C3)C4)o2)CC1 [Example 13]
IC50 (nM): 560
--
molecule: CS(=O)(=O)C1(c2ccc(C(=O)NC34CC(c5ccnc(-c6ccc(Cl)cc6)n5)(C3)C4)o2)CC1 [Example 47]
IC50 (nM): 140
--
molecule: CS(=O)(=O)C1(c2ccc(C(=O)NC34CC(c5noc(-c6ccc(Cl)cc6)n5)(C3)C4)o2)CC1 [Example 40]
IC50 (nM): 100

###

# Test system: HBeAg
# assay_overview: microbe, parasite or virus in culture
# Type: cell-based, HBV
# reported_conditions: Hepatitis B virus, read-out: HBeAg IC50
pIC50: −log10 of the molar value.

molecule: CS(=O)(=O)C1(c2nsc(C(=O)NC34CC(c5nc(-c6cccc(Cl)c6)cs5)(C3)C4)n2)CC1 [Example 4]
pIC50: 6.92

molecule: CS(=O)(=O)C1(c2ccc(C(=O)NC34CC(c5nc(-c6ccccc6Cl)cs5)(C3)C4)o2)CC1 [Example 3]
pIC50: 6.30

molecule: CS(=O)(=O)C1(c2ccc(C(=O)NC34CC(c5ncc(-c6ccc(Cl)c(Cl)c6)s5)(C3)C4)o2)CC1 [Example 21]
pIC50: 7.15

molecule: CS(=O)(=O)C1(c2ccc(C(=O)NC34CC(c5nc(-c6ccc(Cl)cc6)ns5)(C3)C4)o2)CC1 [Example 18]
pIC50: 6.92

molecule: CS(=O)(=O)C1(c2ccn(C(=O)NC34CC(c5ncc(-c6ccc(Cl)cc6)s5)(C3)C4)n2)CC1 [Example 54]
pIC50: 7.30

molecule: CS(=O)(=O)C1(c2ccc(C(=O)NC34CC(c5nc(-c6ccc(Cl)c(Cl)c6)cs5)(C3)C4)o2)CC1 [Example 8]
pIC50: 6.96

molecule: CS(=O)(=O)C1(c2nsc(C(=O)NC34CC(c5nc(-c6ccc(Cl)cc6)no5)(C3)C4)n2)CC1 [Example 34]
pIC50: 7.70

molecule: CS(=O)(=O)C1(c2nsc(C(=O)NC34CC(c5ccnc(-c6ccc(Cl)cc6)n5)(C3)C4)n2)CC1 [Example 48]
pIC50: 7.15

molecule: CS(=O)(=O)C1(c2ccc(C(=O)NC34CC(c5ccn(-c6ccc(Cl)cc6)n5)(C3)C4)o2)CC1 [Example 42]
pIC50: 6.47

molecule: CS(=O)(=O)C1(c2ccc(C(=O)NC34CC(c5nnn(-c6ccc(Cl)cc6)n5)(C3)C4)o2)CC1 [Example 44]
pIC50: 6.57

molecule: CS(=O)(=O)C1(c2ccc(C(=O)NC34CC(c5cnn(-c6ccc(Cl)cc6)n5)(C3)C4)o2)CC1 [Example 30]
pIC50: 7.40

molecule: CS(=O)(=O)Cc1nsc(C(=O)NC23CC(c4nc(-c5ccc(Cl)cc5)no4)(C2)C3)n1 [Example 33]
pIC50: 6.43

molecule: CS(=O)(=O)C1(c2ccn(C(=O)NC34CC(c5nc(-c6ccc(Cl)cc6)cs5)(C3)C4)n2)CC1 [Example 53]
pIC50: 6.96

molecule: CS(=O)(=O)C1(c2ncc(C(=O)NC34CC(c5nc(-c6ccc(Cl)cc6)cs5)(C3)C4)o2)CC1 [Example 6]
pIC50: 7.30

molecule: CS(=O)(=O)C1(c2nsc(C(=O)NC34CC(c5nc(-c6ccc(F)cc6)no5)(C3)C4)n2)CC1 [Example 35]
pIC50: 7.40

###

Some compounds, each annotated with its measured half-life.
# assay_overview: Single dose pharmacokinetics (PK) study in male C57BL/6 mouse
# Type: in vivo
# reported_conditions: male, C57BL/6, plasma; mouse, IV bolus 1 mg/kg

compound: CS(=O)(=O)C1(c2ccc(C(=O)NC34CC(c5noc(-c6ccc(Cl)cc6)n5)(C3)C4)o2)CC1 [Example 40]
half-life [h]: 12
//
compound: CS(=O)(=O)C1(c2ccc(C(=O)NC34CC(c5cnn(-c6ccc(Cl)cc6)n5)(C3)C4)o2)CC1 [Example 30]
half-life [h]: 48.4
//
compound: CS(=O)(=O)C1(c2nsc(C(=O)NC34CC(c5cnn(-c6ccc(Cl)cc6)n5)(C3)C4)n2)CC1 [Example 60]
half-life [h]: 62.4
//
compound: CS(=O)(=O)C1(c2nsc(C(=O)NC34CC(c5noc(-c6ccc(Cl)cc6)n5)(C3)C4)n2)CC1 [Example 41]
half-life [h]: 67.3
//
compound: CS(=O)(=O)C1(c2nsc(C(=O)NC34CC(c5ccnc(-c6ccc(Cl)cc6)n5)(C3)C4)n2)CC1 [Example 48]
half-life [h]: 53.7
//
compound: CS(=O)(=O)C1(c2ccc(C(=O)NC34CC(c5nc(-c6ccc(Cl)cc6)cs5)(C3)C4)o2)CC1 [Example 1]
half-life [h]: 23.6
//
compound: CS(=O)(=O)C1(c2ccc(C(=O)NC34CC(c5nc(-c6ccc(Cl)cc6)no5)(C3)C4)o2)CC1 [Example 32]
half-life [h]: 17.8

###

# assay_overview: Single dose pharmacokinetics (PK) study in male C57BL/6 mouse
# Format: in vivo
# reported_conditions: C57BL/6, mouse plasma, IV dose 0.4 mg/kg, AUC value is dose-normalized, read-out: IV AUC0-24h

structure_as_smiles: CS(=O)(=O)C1(c2nsc(C(=O)NC34CC(c5nc(-c6ccc(Cl)cc6)no5)(C3)C4)n2)CC1
AUC(0-t) [ng·h/mL]: 24200

###

# assay_overview: Single dose pharmacokinetics (PK) study in male C57BL/6 mouse
# Type: in vivo
# reported_conditions: mouse, PO 30 mg/kg vs IV, dose normalized AUC0-last
F less than 40% is YES; F greater than or equal to 40% is NO.

structure_as_smiles: CS(=O)(=O)C1(c2ccc(C(=O)NC34CC(c5cnn(-c6ccc(Cl)cc6)n5)(C3)C4)o2)CC1
label: NO

structure_as_smiles: CS(=O)(=O)C1(c2ccc(C(=O)NC34CC(c5nc(-c6ccc(Cl)cc6)no5)(C3)C4)o2)CC1
label: YES

structure_as_smiles: CS(=O)(=O)C1(c2nsc(C(=O)NC34CC(c5cnn(-c6ccc(Cl)cc6)n5)(C3)C4)n2)CC1
label: YES

structure_as_smiles: CS(=O)(=O)C1(c2ccc(C(=O)NC34CC(c5nc(-c6ccc(Cl)cc6)cs5)(C3)C4)o2)CC1
label: NO

structure_as_smiles: CS(=O)(=O)C1(c2ccc(C(=O)NC34CC(c5noc(-c6ccc(Cl)cc6)n5)(C3)C4)o2)CC1
label: YES

###

Entries and their AUC(0-t)
# assay_overview: Single dose pharmacokinetics (PK) study in male C57BL/6 mouse
# Assay type: in vivo
# reported_conditions: male, C57BL/6; mouse plasma, PO 30 mg/kg single dose; read-out: PO AUC0-24h

structure_as_smiles: CS(=O)(=O)C1(c2nsc(C(=O)NC34CC(c5cnn(-c6ccc(Cl)cc6)n5)(C3)C4)n2)CC1
units_label: µg·h/mL
AUC(0-t): 154
//
structure_as_smiles: CS(=O)(=O)C1(c2ccc(C(=O)NC34CC(c5nc(-c6ccc(Cl)cc6)cs5)(C3)C4)o2)CC1
units_label: µg·h/mL
AUC(0-t): 1310
//
structure_as_smiles: CS(=O)(=O)C1(c2nsc(C(=O)NC34CC(c5nc(-c6ccc(Cl)cc6)no5)(C3)C4)n2)CC1
units_label: µg·h/mL
AUC(0-t): 270
//
structure_as_smiles: CS(=O)(=O)C1(c2ccc(C(=O)NC34CC(c5cnn(-c6ccc(Cl)cc6)n5)(C3)C4)o2)CC1
units_label: µg·h/mL
AUC(0-t): 370
//
structure_as_smiles: CS(=O)(=O)C1(c2ccc(C(=O)NC34CC(c5noc(-c6ccc(Cl)cc6)n5)(C3)C4)o2)CC1
units_label: µg·h/mL
AUC(0-t): 80.8
//
structure_as_smiles: CS(=O)(=O)C1(c2ccc(C(=O)NC34CC(c5nc(-c6ccc(Cl)cc6)no5)(C3)C4)o2)CC1
units_label: µg·h/mL
AUC(0-t): 249

###

# Tested on: HBeAg
# assay_overview: microbe, parasite or virus in culture
# Assay type: cell-based, HBV
# reported_conditions: Hepatitis B virus, read-out: HBeAg IC50
pIC50: −log10 of the molar value.
Hi, to clarify the labels: rule met covers pIC50 from 7 upward, rule not met covers anything below 7.

structure_as_smiles: CS(=O)(=O)C1(c2ccc(C(=O)NC34CC(c5csc(-c6ccccc6)n5)(C3)C4)o2)CC1
study_target: HBeAg
label: rule not met

structure_as_smiles: CS(=O)(=O)C1(c2ccc(C(=O)NC34CC(c5nc(-c6ccc(Cl)cc6)no5)(C3)C4)o2)CC1
study_target: HBeAg
label: rule met
